Listing of entries alongside the reported protein stability index.
B1: TMEM106C (parent)
chain: TVPEILVHNIVIFMRTSVKISYIG

variants of: B1; test: protein stability index of a GFP-peptide fusion (GPS, HEK-293T) (PSI 1-6); higher = more stable; conditions: c terminus: a fixed tail appended;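 note: lentivirally expressed fusions sorted by FACS into six bins by GFP to DsRed ratio, PSI derived from sequencing read proportions per bin multiplied by bin number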
// print number alone

Worked examples follow.
H8V
2.81
I5S
2.36
I12T
2.07
T16I
1.93

Query: Look at this variant and give its reported protein stability index. T16A
Response: 1.5

Query: Look at this variant and give its reported protein stability index. V11T
Response: 3.11

Query: Look at this variant and give its reported protein stability index. I20Q
Response: 4.14

Query: Look at this variant and give its reported protein stability index. V2I
Response: 2.67

Query: Look at this variant and give its reported protein stability index. I20H
Response: 4.04

Query: Look at this variant and give its reported protein stability index. Y22R
Response: 3.04

Query: Look at this variant and give its reported protein stability index. I5T
Response: 3.88
